Tested on: Staphylococcus aureus
Experiment: Antibacterial activity against Staphylococcus aureus MTCC 096 assessed as zone of inhibition at 100 ug/ml after 14 hrs by cup plate method
Type: functional
Conditions: MTCC 096, 14 h, read-out: IZ

- Entry smiles: "O=c1cc(C(F)(F)F)n(CCCCN2CCCC2)c2ccc(F)cc12"
  zone of inhibition at 100 µg/mL, mm: 14
- Entry smiles: "Cc1ccc2nc(C(F)(F)F)cc(OCCCCN3C(=O)c4ccccc4C3=O)c2c1"
  zone of inhibition at 100 µg/mL, mm: 15
- Entry smiles: "O=C1c2ccccc2C(=O)N1CCCCOc1cc(C(F)(F)F)nc2ccc(F)cc12"
  zone of inhibition at 100 µg/mL, mm: 15
- Entry smiles: "CN1CCN(CCCCn2c(C(F)(F)F)cc(=O)c3cc(F)ccc32)CC1"
  zone of inhibition at 100 µg/mL, mm: 15
- Entry smiles: "O=C1c2ccccc2C(=O)N1CCCCn1c(C(F)(F)F)cc(=O)c2ccccc21"
  zone of inhibition at 100 µg/mL, mm: 13
- Entry smiles: "O=C1c2ccccc2C(=O)N1CCCCOc1cc(C(F)(F)F)nc2ccccc12"
  zone of inhibition at 100 µg/mL, mm: 16
- Entry smiles: "COc1ccc2c(c1)c(=O)cc(C(F)(F)F)n2CCCCN1C(=O)c2ccccc2C1=O"
  zone of inhibition at 100 µg/mL, mm: 16
- Entry smiles: "O=c1cc(C(F)(F)F)n(C/C=C/CN2CCOCC2)c2ccc(F)cc12"
  zone of inhibition at 100 µg/mL, mm: 12
- Entry smiles: "O=c1cc(C(F)(F)F)n(CCCCN2CCOCC2)c2ccc(F)cc12"
  zone of inhibition at 100 µg/mL, mm: 15
- Entry smiles: "O=c1cc(C(F)(F)F)n(CCCCN2CCCCC2)c2ccc(F)cc12"
  zone of inhibition at 100 µg/mL, mm: 12
- Entry smiles: "O=C1c2ccccc2C(=O)N1CCCCn1c(C(F)(F)F)cc(=O)c2cc(F)ccc21"
  zone of inhibition at 100 µg/mL, mm: 15
- Entry smiles: "O=C(O)c1cn(C2CC2)c2cc(N3CCNCC3)c(F)cc2c1=O"
  zone of inhibition at 100 µg/mL, mm: 17
- Entry smiles: "Cc1ccc2c(c1)c(=O)cc(C(F)(F)F)n2CCCCN1C(=O)c2ccccc2C1=O"
  zone of inhibition at 100 µg/mL, mm: 15
- Entry smiles: "O=c1cc(C(F)(F)F)n(C/C=C/CN2CCCC2)c2ccc(F)cc12"
  zone of inhibition at 100 µg/mL, mm: 15
- Entry smiles: "O=c1cc(C(F)(F)F)n(C/C=C/CN2CCCCC2)c2ccc(F)cc12"
  zone of inhibition at 100 µg/mL, mm: 13
- Entry smiles: "CN1CCN(C/C=C/Cn2c(C(F)(F)F)cc(=O)c3cc(F)ccc32)CC1"
  zone of inhibition at 100 µg/mL, mm: 15
